# Study System: T1, Human CD19-his protein (human, UniProt P15391 20-291)
# T1 construct: bought protein; also called recombinant human CD19-His; CD19 full-length protein; not shown: His tag
# T1 sequence (looked up): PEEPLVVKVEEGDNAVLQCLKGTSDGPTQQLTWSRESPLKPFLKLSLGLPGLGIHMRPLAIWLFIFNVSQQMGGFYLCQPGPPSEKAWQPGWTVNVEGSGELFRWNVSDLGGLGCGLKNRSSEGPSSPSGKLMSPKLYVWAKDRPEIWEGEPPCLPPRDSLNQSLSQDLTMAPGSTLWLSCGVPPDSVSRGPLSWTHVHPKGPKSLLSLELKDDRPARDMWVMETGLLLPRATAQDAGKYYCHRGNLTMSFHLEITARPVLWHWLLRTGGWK
# Method Summary: SPR Biacore, method of example 7.1, human CD19-His
Property Label: koff (s⁻¹)
Expressed in s⁻¹, but write only the number.

• F3.121.4-L2H2 (antibody, mouse IgG1, kappa, V domains shown, humanized antibody of F3.121.4, VL2+VH2, murine IgG1 constant regions) VH: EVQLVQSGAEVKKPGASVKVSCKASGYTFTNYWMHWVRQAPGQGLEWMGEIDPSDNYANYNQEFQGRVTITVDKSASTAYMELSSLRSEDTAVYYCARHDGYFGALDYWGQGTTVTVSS VL: EIVLTQSPDFQSVTPKEKVTITCSASSSISSNYLHWYQQKPDQSPKLLIKRTSNLASGVPSRFSGSGSGTDFTLTINSLEAEDAATYYCQQASSIPRMFTFGQGTKLEIKR = 0.000195

Please find the next binder below.
Quick one: koff for F3.121.4-L3H1 (antibody, mouse IgG1, kappa, V domains shown, humanized antibody of F3.121.4, VL3+VH1, murine IgG1 constant regions) VH: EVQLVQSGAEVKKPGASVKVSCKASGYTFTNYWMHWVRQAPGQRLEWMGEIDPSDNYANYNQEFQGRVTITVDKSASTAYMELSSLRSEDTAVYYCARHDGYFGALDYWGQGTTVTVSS VL: EIVLTQSPDFQSVTPKEKVTITCSASSSISSNYLHWYQQKPDQSPKFLIYRTSNLASGVPSRFSGSGSGTDFTLTINSLEAEDAATYYCQQASSIPRMFTFGQGTKLEIKR ?
3.18e-05
